Record form. Attribute: TGI. Fill in for each entry.
tested on: CCRF-CEM leukemia; test: NCI tumour cell line growth inhibition, 48 h

Recorded TGI, per entry:
[
  {
    "compound": "CCOC(=O)c1cc(Br)c(-c2onc(C)c2Br)n1C",
    "measured-on": "CCRF-CEM leukemia",
    "TGI": "> 100 µM"
  },
  {
    "compound": "N#Cc1nn(-c2cc(=O)[nH]c3ccc(Br)cc23)c(N)c1C#N",
    "measured-on": "CCRF-CEM leukemia",
    "TGI": "> 100 µM"
  },
  {
    "compound": "C=CCSSc1ncnc2c1ncn2C1OC(CO)C(O)C1O (stereo unspecified)",
    "measured-on": "CCRF-CEM leukemia",
    "TGI": "4.5 µM"
  },
  {
    "compound": "Cn1c(=O)n2n(c1=O)[C@@H](c1ccccc1)[C@H]2c1ccccc1",
    "measured-on": "CCRF-CEM leukemia",
    "TGI": "> 100 µM"
  },
  {
    "compound": "CCN(CC)CCCCC1CCN(CC(=O)N2c3cc(Cl)ccc3NC(=O)CC2C)CC1 (stereo unspecified)",
    "measured-on": "CCRF-CEM leukemia",
    "TGI": "> 100 µM"
  }
]

Proceeding to the next compound to report its TGI.
Can you look up the measured TGI of `COc1cc2c(cc1OC)-c1cc3ccc(OC)c(OC)c3c[n+]1CC2` for me?
> 100 µM

###

system: U251 CNS; assay: NCI tumour cell line growth inhibition, 48 h
Record form. Attribute: TGI. Fill in for each entry.

State the recorded TGI for every item in the following list.
1. CCN1CCN(c2ccc(Nc3ncc4ccc5ncn(C(C)C)c5c4n3)nc2)CC1
2. O=C(COc1ccc(Cl)cc1Cl)N/N=C/C=C/c1ccc([N+](=O)[O-])o1
3. CSC1(CC(=O)N2CCCCC2)C(=O)Nc2ccccc21 (stereo unspecified)

3.94 µM
> 100 µM
> 100 µM

###

Record form. Attribute: TGI. Fill in for each entry.
system: TK-10 renal; assay: NCI tumour cell line growth inhibition, 48 h

[
  {
    "compound": "O=C(O)C1=NN(c2ccc(S(=O)(=O)O)cc2)C2(C1)SCC(=O)N2c1nc2ccccc2s1 (centres undefined)",
    "TGI": "> 100 µM"
  },
  {
    "compound": "CC[CH2][Sn]([CH2]CC)([O]C(=O)Cc1ccc(F)cc1)[O][Sn]([CH2]CC)([CH2]CC)[O]C(=O)Cc1ccc(F)cc1",
    "TGI": "0.393 µM"
  },
  {
    "compound": "Cc1nnc2n1N=C(c1cc(F)c(Cl)cc1Cl)/C(=C/c1ccc3c(c1)OCO3)S2",
    "TGI": "> 100 µM"
  },
  {
    "compound": "CC(C)(C)c1cc(-c2nc3c(F)c(F)c(F)c(F)c3[nH]2)cc(C(C)(C)C)c1O",
    "TGI": "> 100 µM"
  },
  {
    "compound": "CC(C)c1ccc2nc3ccc(C(=O)NCCN4CCN(c5ccccc5)CC4)cn3c(=O)c2c1",
    "TGI": "> 100 µM"
  }
]

State the recorded TGI for every item in the following list.
1. CC(C)NC(=O)OCc1c(COC(=O)NC(C)C)c(-c2ccc[n+](COC(=O)C(C)(C)C)c2)n2c1CCC2
2. FC(F)(F)c1nc(-c2ccccc2)oc1Sc1oc(-c2ccccc2)nc1C(F)(F)F
3. Clc1ccc2c(NCCNc3nc(N4CCCC4)nc4ccccc34)ccnc2c1
4. CC1=Nc2ccccc2C12C(c1ccccc1)C(c1ccccc1)C(=O)N1c3ccccc3CC12 (centres undefined)

> 100 µM
> 100 µM
4.2 µM
> 100 µM

###

tested on: SR leukemia; assay: NCI tumour cell line growth inhibition, 48 h; in the data active = GI50 below about 0.43 µM; inactive = the rest
Your response should consist of one outcome taken from active, inactive

[
  {
    "smiles-entry": "CC[CH2][Sn]([CH2]CC)([O]C(=O)Cc1ccc(F)cc1)[O][Sn]([CH2]CC)([CH2]CC)[O]C(=O)Cc1ccc(F)cc1",
    "class-name": "active"
  },
  {
    "smiles-entry": "Clc1ccc2c(NCCNc3nc(N4CCCC4)nc4ccccc34)ccnc2c1",
    "class-name": "active"
  },
  {
    "smiles-entry": "N#Cc1nn(-c2cc(=O)[nH]c3ccc(Br)cc23)c(N)c1C#N",
    "class-name": "inactive"
  }
]

How was `Fc1cccc(-c2[nH]nc3nc(Nc4cccnc4)sc23)c1` classified in this test?
inactive

How was `O=C(O)c1ccccc1Nc1ccc2nnc(-c3ccncc3)n2n1` classified in this test?
inactive

###

system: MOLT-4 leukemia; assay: NCI tumour cell line growth inhibition, 48 h; in the data active = GI50 below about 0.43 µM; inactive = the rest
Your response should consist of one outcome taken from y = active, n = inactive

[
  {
    "compound": "Nc1nc(-c2ccccc2)cc(-c2ccc(Cl)cc2)c1-c1nc2ccccc2o1",
    "class-name": "n"
  },
  {
    "compound": "Cc1ccc(C2=NN(c3ccc(S(N)(=O)=O)cc3)C(c3cn(-c4ccccc4)nc3-c3ccccc3)C2)cc1 (centres undefined)",
    "class-name": "n"
  },
  {
    "compound": "Cc1nc2sc(C(=O)Nc3cccc(Br)c3)c(N)c2cc1C(O)c1ccccc1 (centres undefined)",
    "class-name": "n"
  }
]

How was `O=C(O)c1ccccc1Nc1ccc2nnc(-c3ccncc3)n2n1` classified in this test?
n

How was `COc1cc(N2CCC(N3CCN(C)CC3)CC2)ccc1Nc1ncc(Cl)c(Nc2ccccc2S(=O)(=O)C(C)C)n1` classified in this test?
n

How was `O=S(=O)(Nc1ccccn1)c1ccc(N=Nc2ccc(O)c3ncccc23)cc1` classified in this test?
n

How was `Oc1c(CN2CCN(c3ccccc3F)CC2)cc(Br)c2cccnc12` classified in this test?
n

How was `C=C(C)[C@@H]1CC[C@]2(C(N)=O)CC[C@]3(C)[C@H](CC[C@@H]4[C@@]5(C)C/C(=C/c6cccnc6)[C@H](O)C(C)(C)[C@@H]5CC[C@]43C)[C@@H]12` classified in this test?
n

How was `O=C(NCCCCCCNC(=O)OCc1ccc2c(Cl)cc(Cl)c(O)c2n1)OCc1ccc2c(Cl)cc(Cl)c(O)c2n1` classified in this test?
n

How was `COC1=C(OC)[C@]2(OC)c3c(O)c(OC)c4c(c3O[C@@]23O[C@@H](c2ccccc2)CC=C3C1=O)[C@@H](O)C[C@H](c1ccccc1)O4` classified in this test?
y

###

system: SNB-75 CNS; test: NCI tumour cell line growth inhibition, 48 h
Record form. Attribute: TGI. Fill in for each entry.

State the recorded TGI for every item in the following list.
1. O=c1c2cc(S(=O)(=O)Nc3c(Cl)cccc3Cl)ccc2ncn1NS(=O)(=O)c1ccc2ccccc2c1
2. CC(=O)C1=C(O)CCC1=O
3. COc1cc(Nc2nc3cc(C(F)(F)F)ccc3nc2C)cc(OC)c1OC

1. > 62.5 µM
2. > 100 µM
3. 39 µM

State the recorded TGI for every item in the following list.
1. Cc1cc(=O)[nH]c(NNC(C#N)c2ccco2)n1 (stereo unspecified)
2. Cc1ccc(NC(=O)CC2C(=O)Nc3ccccc3S2=O)c(C)c1 (stereo unspecified)
3. COC1CC(OC)C(O)C(CO)O1 (stereo unspecified)

> 100 µM
30 µM
> 100 µM

###

tested on: SK-MEL-5 melanoma; assay: NCI tumour cell line growth inhibition, 48 h; in the data active = GI50 below about 0.43 µM; inactive = the rest
Your response should consist of one outcome taken from Y (active), N (inactive)

Worked set:
[
  {
    "compound": "COc1ccc2nc(-c3cc4c([nH]c5ccccc54)c(-c4ccc(F)c(F)c4)n3)[nH]c2c1",
    "measured-on": "SK-MEL-5 melanoma",
    "class-name": "N"
  },
  {
    "compound": "Fc1ccc(-c2nc(Nc3ccc(-c4nc5ccccc5[nH]4)cc3)nc(N3CCOCC3)n2)cc1",
    "measured-on": "SK-MEL-5 melanoma",
    "class-name": "N"
  },
  {
    "compound": "C/C(=C\\c1ccn(-c2ccc(N)cc2F)n1)[C@@H]1C[C@@H]2O[C@]2(C)CCC[C@H](C)[C@H](O)[C@@H](C)C(=O)C(C)(C)[C@@H](O)CC(=O)O1",
    "measured-on": "SK-MEL-5 melanoma",
    "class-name": "Y"
  },
  {
    "compound": "O=S(=O)(Nc1ccccn1)c1ccc(N=Nc2ccc(O)c3ncccc23)cc1",
    "measured-on": "SK-MEL-5 melanoma",
    "class-name": "N"
  },
  {
    "compound": "Cc1nc2sc(C(=O)Nc3cccc(Br)c3)c(N)c2cc1C(O)c1ccccc1 (centres undefined)",
    "measured-on": "SK-MEL-5 melanoma",
    "class-name": "N"
  }
]

How was `C=C1C(=O)O[C@H]2[C@H]1CC/C(COC(=O)NCc1cc(OC)cc(OC)c1)=C\CC[C@@]1(C)O[C@@H]21` classified in this test?
N

How was `Nc1nc(-c2ccc(Cl)cc2)cc(-c2ccccc2)c1-c1nc2ccccc2o1` classified in this test?
N

How was COC(C)(C)[C@H](O)C(O)CC(C)[C@@H]1CCC23CC12CCC1[C@@]2(C)CCC(OC(C)=O)C(C)(C)C2CC(OC2OC(COC(C)=O)C(O)C(O)C2O)[C@]13C (some centres undefined) classified in this test?
N
